tgt: hexokinase 1 (∆21-hHK1) (Homo sapiens)
Sequence (P19367 22-917): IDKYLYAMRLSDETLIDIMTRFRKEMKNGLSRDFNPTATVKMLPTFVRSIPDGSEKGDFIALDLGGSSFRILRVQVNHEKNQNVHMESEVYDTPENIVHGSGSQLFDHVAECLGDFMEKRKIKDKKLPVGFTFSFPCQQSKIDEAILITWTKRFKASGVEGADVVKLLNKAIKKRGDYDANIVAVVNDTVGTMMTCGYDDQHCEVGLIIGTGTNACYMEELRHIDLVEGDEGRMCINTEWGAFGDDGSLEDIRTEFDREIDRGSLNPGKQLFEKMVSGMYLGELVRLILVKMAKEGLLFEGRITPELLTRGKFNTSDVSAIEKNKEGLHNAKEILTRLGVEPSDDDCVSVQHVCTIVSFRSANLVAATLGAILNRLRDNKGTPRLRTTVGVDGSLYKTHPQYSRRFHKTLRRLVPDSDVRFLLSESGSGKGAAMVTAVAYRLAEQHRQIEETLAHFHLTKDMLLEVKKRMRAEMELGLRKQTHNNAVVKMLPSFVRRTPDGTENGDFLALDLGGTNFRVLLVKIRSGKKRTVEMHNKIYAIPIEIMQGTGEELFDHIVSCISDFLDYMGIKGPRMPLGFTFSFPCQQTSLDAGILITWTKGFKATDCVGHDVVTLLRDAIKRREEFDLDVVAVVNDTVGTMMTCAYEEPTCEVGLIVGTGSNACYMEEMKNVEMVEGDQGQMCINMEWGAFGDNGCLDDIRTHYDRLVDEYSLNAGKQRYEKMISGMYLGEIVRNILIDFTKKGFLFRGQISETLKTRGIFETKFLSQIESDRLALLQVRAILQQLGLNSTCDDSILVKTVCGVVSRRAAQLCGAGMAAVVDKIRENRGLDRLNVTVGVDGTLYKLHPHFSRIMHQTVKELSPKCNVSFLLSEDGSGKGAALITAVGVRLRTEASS
methodSummary: spectrophotometric enzyme assay, recombinant human enzyme, […] ATP-Mg2+

| compound | Ki / µM |
| --- | --- |
| O=P(O)(O)OC[C@H]1OC[C@H](O)[C@@H](O)[C@@H]1O [1,5AG6P, 1,5-anhydroglucitol-6-phosphate] | 53 |

Reference for the values: paper PMC6347702
